meta.source: ChEMBL document CHEMBL3507680

Recorded cytotoxicity at 70.5 h for the following compounds
experimental_details: Human HepG2 cell viability assay in 384 well format
Type: toxicity, cell-based
Parameters: dose 125 nL, time 70.5 hour; concentration not given beside the values
measurement_conditions: HepG2 cells, read-out: Inhibition
Reply with just the number (in %).

A selection of reference data follows.
compound	measured
Clc1ccc(CN(CCN2CCOCC2)Cc2cccnc2)cc1Cl	-5.5
Cc1noc(C)c1CN(C)C(=O)C1CCCN1S(N)(=O)=O (stereo unspecified)	17.7
O=C(Cc1ccc2c(c1)OCO2)N1CCN(c2ccncc2)CC1	-9.91
Cc1cc(C2CCCN2Cc2nc(-c3ccco3)no2)on1 (stereo unspecified)	-0.568
CC(C)N1CCOCC2(CCCN(C(=O)CCc3cccnc3)C2)C1 (stereo unspecified)	-6.39

Query block: Report cytotoxicity at 70.5 h for COc1ncccc1CNC(=O)NC1CCCOc2ccccc21 (stereo unspecified) please.
Result block: -4.36

Query block: Report cytotoxicity at 70.5 h for `Cc1nccc([C@@H]2C[C@@H]3CCN(S(C)(=O)=O)C[C@H]3O2)n1` please.
Result block: -10

====

experimental_details: Human HepG2 cell viability assay in 384 well format
Type: toxicity, cell-based
Parameters: dose 125 nL, time 70.5 hour; concentration not given beside the values
measurement_conditions: HepG2 cells, read-out: Inhibition
Recorded cytotoxicity at 70.5 h for the following compounds
Report the figure along with its unit, number first.

A selection of reference data follows.
compound	cytotoxicity at 70.5 h
CCCOCC1CCN(C(=O)Cn2cccc(C(F)(F)F)c2=O)C1 (configuration not stated)	3.49%
O=C(Cc1c[nH]c2ccccc12)N1CCC(Nc2cccnn2)CC1	-10.3%

Query block: Report cytotoxicity at 70.5 h for CCc1nc(C2CCCN(C(=O)c3cccc4cn[nH]c34)C2)no1 (configuration not stated) please.
Result block: 3.52%

====

Recorded cytotoxicity at 70.5 h for the following compounds
experimental_details: Human HepG2 cell viability assay in 384 well format
Assay type: toxicity, cell-based
Parameters: dose 125 nL, time 70.5 hour; concentration not given beside the values
measurement_conditions: HepG2 cells, read-out: Inhibition
Reply with just the number (in %).

compound	measured
Cc1noc2ncc(C(=O)N3CCCC(n4ccnc4C)C3)cc12 (configuration not stated)	-7.39
CCOc1cccc(C(=O)N2CCC3(CC2)[C@H](O)C[C@@H]3OC)c1	0.338
c1cncc(-c2noc(C3CN(Cc4cccs4)C3)n2)c1	-12.2
COCCn1cc(NC(=O)NC(C)c2ccc(Cl)s2)cn1 (configuration not stated)	-3.34
Cn1ncc2c(=O)[nH]c(CN3CCCC3c3cccc(F)c3)nc21 (configuration not stated)	-7.63

Consider the record given below.
Query block: Report cytotoxicity at 70.5 h for Cc1ccccc1C(C(=O)N(C)Cc1cnn(C)c1)N(C)C (configuration not stated) please.
Result block: -1.08

====

experimental_details: Human HepG2 cell viability assay in 384 well format
Type: toxicity, cell-based
Parameters: dose 125 nL, time 70.5 hour; concentration not given beside the values
measurement_conditions: HepG2 cells, read-out: Inhibition
Recorded cytotoxicity at 70.5 h for the following molecules
Reply with just the number (in %).

A selection of reference data follows.
molecule	units_label	cytotoxicity at 70.5 h
CC(C)CN1CCC2(C1)CN(S(=O)(=O)c1cn(C)cn1)C2	%	4.36
CC(=O)NCCOc1c(Cl)cccc1Cl	%	28.8
Cc1c(C(=O)N2CCSCC2)sc2nc(C(F)(F)F)ccc12	%	-9.06
CC(NC(=O)N(C)Cc1ccc(Cl)s1)c1ccccn1 (stereo unspecified)	%	1.2
c1ccc(-n2nnnc2CN2CCCC(Cn3cncn3)C2)cc1 (stereo unspecified)	%	-0.367
Cc1nc(-c2nc(C(=O)N(C)C)c3ccccn23)cn1C(C)C	%	-8.88
Cc1cn[nH]c1C1COCCN1C(=O)c1ccc2[nH]nnc2c1 (stereo unspecified)	%	-4.19
Cc1ncnc2c1CCN(CC1CCOC1)CC2 (stereo unspecified)	%	-8.05
COc1cccc2c1OCC(C(=O)N1CCC(NS(C)(=O)=O)CC1)C2 (stereo unspecified)	%	-7.91
Cc1cc(C(C)NCCN2CCC(N(C)C)CC2)c(C)s1 (stereo unspecified)	%	12.7

Query block: Report cytotoxicity at 70.5 h for CCN1CCC(CC(=O)N2CCn3cccc3C2c2cccnc2)CC1 (stereo unspecified) please.
Result block: 28.5

====

experimental_details: Human HepG2 cell viability assay in 384 well format
Format: toxicity, cell-based
Design: dose 125 nL, time 70.5 hour; concentration not given beside the values
measurement_conditions: HepG2 cells, read-out: Inhibition
quantity_kind: cytotoxicity at 70.5 h (%)
Reply with just the number (in %).

A selection of reference data follows.
molecule	measured
CCn1cc(CN2CCC(O)(Cn3nc(C)ccc3=O)CC2)cn1	-4.18
CC1(C)OCC(CNC(=O)c2cnn(-c3cccc(Cl)c3Cl)c2N)O1 (configuration not stated)	17
Cc1noc(C)c1CC(=O)N1CCCC(Cn2ccnc2C)C1 (configuration not stated)	-16.8

Query block: Report cytotoxicity at 70.5 h for Cc1ccc(S(=O)(=O)NCC2COCc3c(C)nnn3C2)cc1F (configuration not stated) please.
Result block: 7.81

Query block: Report cytotoxicity at 70.5 h for Fc1cccc(-c2c[nH]c(C3CCCN3)n2)c1 (configuration not stated) please.
Result block: 0.492

Query block: Report cytotoxicity at 70.5 h for `Cc1n[nH]c(C)c1CNC(=O)NC1CCCCC1` please.
Result block: -8.57

====

experimental_details: Human HepG2 cell viability assay in 384 well format
Assay type: toxicity, cell-based
Parameters: dose 125 nL, time 70.5 hour; concentration not given beside the values
measurement_conditions: HepG2 cells, read-out: Inhibition
quantity_kind: cytotoxicity at 70.5 h (%)
Reply with just the number (in %).

compound	units_label	cytotoxicity at 70.5 h
Cc1nccc(N[C@H]2CN(CCS(C)(=O)=O)C[C@@H]2C2CC2)n1	%	18.1
O=C(c1ccc(O)cn1)N1CCOC(c2ccc(Cl)c(Cl)c2)C1 (centres undefined)	%	-3.33
Cc1nnc2n1CCN(C(=O)CN1C(=O)CCCc3ccccc31)C2	%	12.9
COc1ccc(C[C@H]2CN(C(=O)c3ccc(C)nc3)CC[C@@H]2OC)cc1	%	-2.92
CC1CCN(S(=O)(=O)c2cccn(CC(=O)N3CCOCC3)c2=O)CC1	%	-16
Cc1oc(-c2ccsc2)nc1CC(=O)NCC(=O)Nc1cn[nH]c1	%	-13

Query block: Report cytotoxicity at 70.5 h for `O=C(c1ccc(O)nc1)N1Cc2ccccc2OC2(CCOCC2)C1` please.
Result block: 0.0352

Query block: Report cytotoxicity at 70.5 h for `Cc1cccc(C(=O)N2CC[C@@H]3[C@H]2CCC(=O)N3c2ccccc2)n1` please.
Result block: 17.8

Query block: Report cytotoxicity at 70.5 h for `OCCN1CCC(c2csc(Nc3cnccn3)n2)CC1` please.
Result block: 14.5

====

experimental_details: Human HepG2 cell viability assay in 384 well format
Format: toxicity, cell-based
Parameters: dose 125 nL, time 70.5 hour; concentration not given beside the values
measurement_conditions: HepG2 cells, read-out: Inhibition
quantity_kind: cytotoxicity at 70.5 h
Report the figure along with its unit, number first.

compound	cytotoxicity at 70.5 h
Cc1nc2c(cc1C(=O)O)CCN(CC1CC1)CC2	-3.49%
CC(C)(C)C(=O)N1C[C@@H](F)[C@@H](OCc2nc3ncccc3[nH]2)C1	-2.41%

Consider the record given below.
Query block: Report cytotoxicity at 70.5 h for Cc1nc(C)n(CC2CCCN2CC(=O)NCCC#N)n1 (stereo not drawn) please.
Result block: -19.9%

====

experimental_details: Human HepG2 cell viability assay in 384 well format
Assay type: toxicity, cell-based
Design: dose 125 nL, time 70.5 hour; concentration not given beside the values
measurement_conditions: HepG2 cells, read-out: Inhibition
Recorded cytotoxicity at 70.5 h for the following compounds
Report the figure along with its unit, number first.

compound	measured
Cc1ccccc1CN(C)C(=O)c1cc(C2CCCN2C)ccn1 (stereo unspecified)	10.5%
CC(C)CC(=O)N1CCCn2cnc(CN3CCCC3=O)c2C1	-4.92%
COCCNc1nnc(S(=O)(=O)CCC(C)(C)C#N)s1	-5.9%
CCc1[nH]c2c(CNc3cncc(C(=O)N(C)C)n3)cc(F)cc2c1C	4.01%
CN(C)Cc1ccc(C(=O)N2CCCC(COc3ccc(F)cc3)C2)o1 (stereo unspecified)	-5.29%
CCNc1cc2c(nn1)CCN(C(=O)c1ccc(-n3cccn3)nc1)C2	-15.9%
CCNC(=O)c1ccc(NC2CCOC3(CCCC3)C2)nn1 (stereo unspecified)	17%
CNC(=O)c1nc2c(s1)CCN(C(=O)c1cccc(OC)c1)CC2	-10%
Cc1nc(C(C)NCc2cc(O)c3cccc(F)c3n2)cs1 (stereo unspecified)	-6.76%
COCC(=O)NCC(Cc1cccc(F)c1)n1cccc1 (stereo unspecified)	0.782%

Consider the record given below.
Query block: Report cytotoxicity at 70.5 h for CCC(=O)N1CCC(NC2CCSCC2)C1 (stereo unspecified) please.
Result block: -8.75%
